tested on: Escherichia coli TOP10; assay: shrunken log2 fold change of peptide-encoding DNA abundance (4.5 h post-induction vs induction); higher = less antimicrobial activity (less host growth inhibition); conditions: time post-induction: 4.5 h; library: site-saturation at positions 5, 18, 19, 20
experimental endpoint: shrunken log2 fold change
Answer with the value's number alone.

Observed shrunken log2 fold change on Escherichia coli TOP10 for RRIRDRPPRLPRPRPRPKRHPRP , please.
0.214

Another sequence to look at: RRIRCRPPRLPRPRPRPPLYPRP
0.429

Another sequence to look at: RRIRLRPPRLPRPRPRPGEHPRP
-0.145

Another sequence to look at: RRIRSRPPRLPRPRPRPDYNPRP
-0.622

Another sequence to look at: RRIRRRPPRLPRPRPRPHWGPRP
0.291

Another sequence to look at: RRIRYRPPRLPRPRPRPPQQPRP
0.0729

Another sequence to look at: RRIRHRPPRLPRPRPRPDFVPRP
-0.242

Another sequence to look at: RRIRFRPPRLPRPRPRPKCRPRP
-0.0272

###

tested on: Escherichia coli TOP10; assay: shrunken log2 fold change of peptide-encoding DNA abundance (4.5 h post-induction vs induction); higher = less antimicrobial activity (less host growth inhibition); settings: time post-induction: 4.5 h; library: site-saturation at positions 5, 18, 19, 20
1 means recorded shrunken log2 fold change is 0.2 or above; 0 means it is below 0.2.

Sample answers from the record:
{"query sequence": "RRIRRRPPRLPRPRPRPTDTPRP", "target": "Escherichia coli TOP10", "label value": 0}
{"query sequence": "RRIRDRPPRLPRPRPRPIAKPRP", "target": "Escherichia coli TOP10", "label value": 0}
{"query sequence": "RRIRGRPPRLPRPRPRPQMTPRP", "target": "Escherichia coli TOP10", "label value": 1}
{"query sequence": "RRIRMRPPRLPRPRPRPRDFPRP", "target": "Escherichia coli TOP10", "label value": 1}
{"query sequence": "RRIRIRPPRLPRPRPRPWNAPRP", "target": "Escherichia coli TOP10", "label value": 0}
{"query sequence": "RRIRDRPPRLPRPRPRPHWFPRP", "target": "Escherichia coli TOP10", "label value": 0}
{"query sequence": "RRIRKRPPRLPRPRPRPMILPRP", "target": "Escherichia coli TOP10", "label value": 0}
{"query sequence": "RRIRRRPPRLPRPRPRPNGSPRP", "target": "Escherichia coli TOP10", "label value": 0}
{"query sequence": "RRIRHRPPRLPRPRPRPAHKPRP", "target": "Escherichia coli TOP10", "label value": 0}
{"query sequence": "RRIRGRPPRLPRPRPRPTAIPRP", "target": "Escherichia coli TOP10", "label value": 1}

Could you verify whether the entry RRIRIRPPRLPRPRPRPGLQPRP shows shrunken log2 fold change of no less than 0.2?
0

Another sequence to look at: RRIRTRPPRLPRPRPRPMGWPRP
1

Another sequence to look at: RRIRMRPPRLPRPRPRPDSHPRP
0

Another sequence to look at: RRIRTRPPRLPRPRPRPFCWPRP
0

Another sequence to look at: RRIRKRPPRLPRPRPRPKWVPRP
1

Another sequence to look at: RRIRPRPPRLPRPRPRPAKFPRP
0

Another sequence to look at: RRIRGRPPRLPRPRPRPAEGPRP
1

Another sequence to look at: RRIRKRPPRLPRPRPRPSDEPRP
1

Another sequence to look at: RRIRQRPPRLPRPRPRPVQGPRP
0

Another sequence to look at: RRIRMRPPRLPRPRPRPAGDPRP
1

Another sequence to look at: RRIRQRPPRLPRPRPRPDIRPRP
0

Another sequence to look at: RRIRDRPPRLPRPRPRPCPMPRP
0

Another sequence to look at: RRIRPRPPRLPRPRPRPTSYPRP
0

Another sequence to look at: RRIRRRPPRLPRPRPRPPMAPRP
1

Another sequence to look at: RRIRVRPPRLPRPRPRPADFPRP
0

Another sequence to look at: RRIRNRPPRLPRPRPRPMKRPRP
0

Another sequence to look at: RRIRKRPPRLPRPRPRPDPNPRP
0

Another sequence to look at: RRIRLRPPRLPRPRPRPYGQPRP
0

Another sequence to look at: RRIRWRPPRLPRPRPRPPRVPRP
1

Another sequence to look at: RRIRWRPPRLPRPRPRPHYDPRP
0

Another sequence to look at: RRIRNRPPRLPRPRPRPMWSPRP
0

###

shrunken log2 fold change overview
tested on: Escherichia coli TOP10; experiment: shrunken log2 fold change of peptide-encoding DNA abundance (4.5 h post-induction vs induction); higher = less antimicrobial activity (less host growth inhibition); conditions: time post-induction: 4.5 h; library: site-saturation at positions 5, 18, 19, 20
Answer with the value's number alone.

Recorded results for 6 sequences are shown here.
{"query sequence": "RRIRDRPPRLPRPRPRPLASPRP", "shrunken log2 fold change": 0.171}
{"query sequence": "RRIRYRPPRLPRPRPRPAHDPRP", "shrunken log2 fold change": -1.14}
{"query sequence": "RRIRWRPPRLPRPRPRPFVSPRP", "shrunken log2 fold change": -0.135}
{"query sequence": "RRIRERPPRLPRPRPRPIVLPRP", "shrunken log2 fold change": -0.579}
{"query sequence": "RRIRDRPPRLPRPRPRPQFDPRP", "shrunken log2 fold change": -0.0102}
{"query sequence": "RRIRGRPPRLPRPRPRPSIRPRP", "shrunken log2 fold change": 0.417}

Using the record for RRIRVRPPRLPRPRPRPHFIPRP , report its shrunken log2 fold change.
-0.304

Another sequence to look at: RRIRTRPPRLPRPRPRPIYMPRP
-0.442

###

shrunken log2 fold change overview
tested on: Escherichia coli TOP10; experiment: shrunken log2 fold change of peptide-encoding DNA abundance (4.5 h post-induction vs induction); higher = less antimicrobial activity (less host growth inhibition); details: time post-induction: 4.5 h; library: site-saturation at positions 5, 18, 19, 20
Answer with the value's number alone.

Recorded results for 6 sequences are shown here.
{"query sequence": "RRIRSRPPRLPRPRPRPPWGPRP", "target": "Escherichia coli TOP10", "shrunken log2 fold change": 0.317}
{"query sequence": "RRIRERPPRLPRPRPRPQSFPRP", "target": "Escherichia coli TOP10", "shrunken log2 fold change": -0.0705}
{"query sequence": "RRIRVRPPRLPRPRPRPYCIPRP", "target": "Escherichia coli TOP10", "shrunken log2 fold change": -0.27}
{"query sequence": "RRIRHRPPRLPRPRPRPHTTPRP", "target": "Escherichia coli TOP10", "shrunken log2 fold change": -0.491}
{"query sequence": "RRIRSRPPRLPRPRPRPVMHPRP", "target": "Escherichia coli TOP10", "shrunken log2 fold change": 0.00492}
{"query sequence": "RRIRFRPPRLPRPRPRPHAQPRP", "target": "Escherichia coli TOP10", "shrunken log2 fold change": -0.305}

Using the record for RRIRMRPPRLPRPRPRPCWCPRP , report its shrunken log2 fold change.
-7.44e-05

Another sequence to look at: RRIRFRPPRLPRPRPRPVGPPRP
0.405

Another sequence to look at: RRIRARPPRLPRPRPRPYKFPRP
-0.279

Another sequence to look at: RRIRERPPRLPRPRPRPGGPPRP
-0.00661

Another sequence to look at: RRIRMRPPRLPRPRPRPCWPPRP
0.218

###

tested on: Escherichia coli TOP10; assay: shrunken log2 fold change of peptide-encoding DNA abundance (4.5 h post-induction vs induction); higher = less antimicrobial activity (less host growth inhibition); conditions: time post-induction: 4.5 h; library: site-saturation at positions 5, 18, 19, 20;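 also: peptides expressed intracellularly from a pBAD plasmid library in pooled LB shake-flask culture, induced with 0.3% L-arabinose, DNA abundance read by NGS, three biological replicates, DESeq2 with apeglm shrinkage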
experimental endpoint: shrunken log2 fold change
Answer with the value's number alone.

{"query sequence": "RRIRRRPPRLPRPRPRPNSKPRP", "target": "Escherichia coli TOP10", "experimental endpoint": "shrunken log2 fold change", "quantitative result": -0.00313}
{"query sequence": "RRIRARPPRLPRPRPRPTLMPRP", "target": "Escherichia coli TOP10", "experimental endpoint": "shrunken log2 fold change", "quantitative result": 0.768}
{"query sequence": "RRIRLRPPRLPRPRPRPIFIPRP", "target": "Escherichia coli TOP10", "experimental endpoint": "shrunken log2 fold change", "quantitative result": 0.606}

Using the record for RRIRHRPPRLPRPRPRPFRMPRP , report its shrunken log2 fold change.
-0.625

Another sequence to look at: RRIRIRPPRLPRPRPRPANDPRP
-0.135

Another sequence to look at: RRIRQRPPRLPRPRPRPPMKPRP
0.00136

Another sequence to look at: RRIRFRPPRLPRPRPRPDYYPRP
-1.21

Another sequence to look at: RRIRIRPPRLPRPRPRPKDIPRP
-1.25

Another sequence to look at: RRIRLRPPRLPRPRPRPYGLPRP
-0.0893

Another sequence to look at: RRIRSRPPRLPRPRPRPATQPRP
0.168

Another sequence to look at: RRIRYRPPRLPRPRPRPAFDPRP
0.105

Another sequence to look at: RRIRGRPPRLPRPRPRPIQPPRP
0.46
